# Tested on: HBV genome in HEK293T cells transduced with a lentiviral vector
# PROTOCOL_DESCRIPTION: Base editing efficiency in Hek293-lentiHBV system (PCR amplicons sequenced on MiSeq)
# Type: cell-based, Hepatitis B virus
# CONDITION_SET: base editor Abe7.10
m = 2'-O-methyl; r = 2'-OH (RNA)
MEASUREMENT_KIND: % Editing average (%)
Your answer is read as %, so omit the unit and give the number.

Briefly, % Editing average measured for G-251: guide RNA SEQ ID NO: 5504 (nucleic acid, sugars from the 5' end m3 r93 m3 r1, linkages s3 o93 s3 (s phosphorothioate, o phosphodiester), T or U not given here) guide: CAGGUAUUGUUUACACAGAAGUUUUAGAGCUAGAAAUAGCAAGUUAAAAUAAGGCUAGUCCGUUAUCAACUUGAAAAAGUGGCACCGAGUCGGUGCUUUU : 77

% Editing average for G-772: guide RNA SEQ ID NO: 5501 (nucleic acid, sugars from the 5' end m3 r93 m3 r1, linkages s3 o93 s3 (s phosphorothioate, o phosphodiester), T or U not given here) guide: UGGCGAUUGGUGGAGGCAGGGUUUUAGAGCUAGAAAUAGCAAGUUAAAAUAAGGCUAGUCCGUUAUCAACUUGAAAAAGUGGCACCGAGUCGGUGCUUUU is 66

Noted for G-845: guide RNA SEQ ID NO: 5508 (nucleic acid, sugars from the 5' end m3 r93 m3 r1, linkages s3 o93 s3 (s phosphorothioate, o phosphodiester), T or U not given here) guide: UUUGAAGUAUGCCUCAAGGUGUUUUAGAGCUAGAAAUAGCAAGUUAAAAUAAGGCUAGUCCGUUAUCAACUUGAAAAAGUGGCACCGAGUCGGUGCUUUU : its % Editing average reads 70

Data origin, for the record: patent US20240294914A1
